Every entry's value here was drawn from patent US9302999B2.

Here the recorded Plant response rating, Ragweed is given for each entry.
Tested on: ragweed (common ragweed, Ambrosia elation)
testSummary: Test C pre-/postemergence: ragweed
Type: in vivo
settings: Preemergence, 62 g ai/ha; scale of 0 to 100, 0 is no effect, 100 is complete control
Just the number, please, no unit after it.

Solved cases (6 shown):
{"testSmiles": "CCc1nn(-c2ccc(C(F)(F)F)cc2)nc1Cc1ccnc(C(F)(F)F)c1", "Plant response rating, Ragweed": 40}
{"testSmiles": "CCc1nn(-c2ccc(C(F)(F)F)cc2)nc1Oc1ccnc(C(F)(F)F)c1", "Plant response rating, Ragweed": 15}
{"testSmiles": "CCc1nn(-c2ccc(F)cc2)nc1Cc1ccnc(C(F)(F)F)c1", "Plant response rating, Ragweed": 0}
{"testSmiles": "COc1nn(-c2cccc(F)c2)nc1Cc1ccnc(C(F)(F)F)c1", "Plant response rating, Ragweed": 0}
{"testSmiles": "Cc1nn(-c2ccc(F)cc2F)nc1Oc1ccnc(C(F)(F)F)c1", "Plant response rating, Ragweed": 0}
{"testSmiles": "CCc1nn(-c2ccc(F)c(F)c2)nc1Oc1ccnc(C(F)(F)F)c1", "Plant response rating, Ragweed": 5}

**Q:** State, in one line, measured Plant response rating, Ragweed of `Cc1nn(-c2ccc(C(F)(F)F)c(F)c2)nc1Oc1ccnc(C(F)(F)F)c1`
**A:** 45

**Q:** State, in one line, measured Plant response rating, Ragweed of `CCc1nn(-c2ccc(C(F)(F)F)c(F)c2)nc1Oc1ccnc(C(F)(F)F)c1`
**A:** 50
